The reported measurements were obtained from ChEMBL document CHEMBL1157539.

What Inhibition was measured for each of the following?
- Tested on: Plasmodium falciparum
- assay name: GSK_TCMDC: Inhibition of Plasmodium falciparum Dd2 in whole red blood cells, using parasite LDH activity as an index of growth. Test compounds present at 2uM
- Format: functional
Write it as a number; the unit % goes unstated.

Provide value of Inhibition for this record tested with Plasmodium falciparum: `O=C(NCCCCCN1CCC(c2c[nH]c3ccccc23)CC1)Nc1ccc(I)c(Cl)c1`
5

Provide value of Inhibition for this record tested with Plasmodium falciparum: `Cc1ccc(Cc2c(N)nc3nc(N)nc(N)c3c2C)cc1.Cl`
8

Provide value of Inhibition for this record tested with Plasmodium falciparum: `Cc1cc(N2CCCCC2)nc2ccc(NC(=O)c3cncc(Br)c3)cc12`
86

Provide value of Inhibition for this record tested with Plasmodium falciparum: `Cc1ccc(-n2cc(CNCCCn3ccnc3)c(-c3cccc(C)c3)n2)cc1`
36

Provide value of Inhibition for this record tested with Plasmodium falciparum: `COc1ccc(OCC(=O)Nc2nc(-c3ccc(OC)cc3)c(C)s2)cc1`
87

Provide value of Inhibition for this record tested with Plasmodium falciparum: `Cc1cc(O)c(-c2cc(C(=O)Nc3cccnc3)[nH]n2)cc1C`
97

Provide value of Inhibition for this record tested with Plasmodium falciparum: `Nc1nc(N)c2c(Sc3ccccc3)cccc2n1`
0

Provide value of Inhibition for this record tested with Plasmodium falciparum: `CCN(CC)S(=O)(=O)c1cc(-c2ccc(=O)n(CC(=O)c3ccc(C)cc3)n2)ccc1C`
66

Provide value of Inhibition for this record tested with Plasmodium falciparum: `Nc1cc(-c2cccc(Cl)c2)nn1-c1ccnc2cc(Cl)ccc12`
33

Provide value of Inhibition for this record tested with Plasmodium falciparum: `COc1ccc(Nc2nc(N3CCCC3)c3ccccc3n2)cc1.Cl`
98

###

- Tested on: HepG2
- assay name: GSK_TCMDC: Percent inhibition of human HepG2 cell line. Test compounds present at 10uM.
- Format: functional
Rule: Inhibition below 10% gives T, anything at or above gives F.

Is it true that Inhibition reported for `CCc1cc(Cc2cnc(N)nc2N)cc(CC)c1OC` is less than 10%?
T

Is it true that Inhibition reported for `Cc1cc(O)c2c(c1)OC(C)(C)C=C2C1=CCN(Cc2ccccc2)CC1` is less than 10%?
T

Is it true that Inhibition reported for `CN(C)CCNC(=O)c1ccc2c(c1)ncn2-c1cc(OCc2ccccc2C(F)(F)F)c(C(N)=O)s1.CN(C)CCNC(=O)c1ccc2ncn(-c3cc(OCc4ccccc4C(F)(F)F)c(C(N)=O)s3)c2c1` is less than 10%?
T

Is it true that Inhibition reported for `O=C(O)C(F)(F)F.c1cc(-c2ccc(CNCc3ccsc3)cc2)cc(-c2nc3ccccc3[nH]2)c1` is less than 10%?
F

Is it true that Inhibition reported for `Cc1ccc(Cc2c[nH]c(NCCSCc3ccc(CN(C)C)s3)nc2=O)cn1` is less than 10%?
T

Is it true that Inhibition reported for `CN(C)CCNc1cc(-c2cccnc2)nc(-c2ccncc2)n1` is less than 10%?
F

Is it true that Inhibition reported for `COc1cccc(CNC[C@@H](O)[C@H](Cc2ccccc2)NC(=O)c2cc(NC(C)C)cc(N3CCCCS3(=O)=O)c2)c1.O=CO` is less than 10%?
T

Is it true that Inhibition reported for CCNc1cc(C(=O)N[C@@H](Cc2ccccc2)[C@H](O)CNC(C)CC(C)C)c(F)c(N2CCCCS2(=O)=O)c1.O=CO (some centres not stated) is less than 10%?
T

Is it true that Inhibition reported for O=C(NCCCCN1CCC2c3cccc(O)c3CCC21)c1ccc(-c2ccccc2)cc1 (configuration not stated) is less than 10%?
F

Is it true that Inhibition reported for `O=C(Nc1ccc(Cl)cc1)c1ccc(CN2CCCN(Cc3ccsc3)CC2)cc1.O=C(O)C(F)(F)F` is less than 10%?
F

Is it true that Inhibition reported for `Cl.Clc1cccnc1N1CCN(c2ncccc2Cl)CC1` is less than 10%?
T

Is it true that Inhibition reported for `Cc1cc(C(=O)Nc2ccc(OCc3ccccc3)cc2)on1` is less than 10%?
T

Is it true that Inhibition reported for `Cc1cc(N/N=C/c2ccccc2[N+](=O)[O-])c2cccc(C)c2n1` is less than 10%?
T

Is it true that Inhibition reported for `CN1CCN(Cc2ccc(-c3ccc4c(Nc5ccc(Oc6ccccn6)cc5)ccnc4c3)o2)CC1` is less than 10%?
F

Is it true that Inhibition reported for `CCNc1cc(C(=O)N[C@@H](Cc2ccccc2)[C@H](O)CNC2CCCC2)cc(N2CCCC2=O)c1` is less than 10%?
T

Is it true that Inhibition reported for `COc1cc(NC(=O)c2ccc(-c3ccc(C(C)=O)cc3)s2)ccc1OCCN1CCCC1` is less than 10%?
F

Is it true that Inhibition reported for `CC(C)(C)c1nn(-c2ccc(Cl)cc2)c2[nH]c(=O)c(CNCc3cccs3)cc12` is less than 10%?
T

###

What Inhibition was measured for each of the following?
- Tested on: HepG2
- assay name: GSK_TCMDC: Percent inhibition of human HepG2 cell line. Test compounds present at 10uM.
- Format: functional
Write it as a number; the unit % goes unstated.

Provide value of Inhibition for this record tested with HepG2: O=C(Nc1cc(F)cc(F)c1)N[C@H]1CCN(CCCCCNC(=O)C2CC2c2ccc(Cl)c(Cl)c2)C1 (some centres undefined)
24

Provide value of Inhibition for this record tested with HepG2: Cc1noc(=O)c2ccc(NC(=O)C(O)(CSc3ccccc3)CC(C)C)cc12 (centres undefined)
0

Provide value of Inhibition for this record tested with HepG2: `O=C(N[C@@H](CC1CCCCC1)C(=O)NCCN1CCCC1)c1ccc(O)c(-c2cccc(C(F)(F)F)c2)c1`
0

Provide value of Inhibition for this record tested with HepG2: `CCOc1cc(CC)ccc1C1CCN(CCN2CCC(NC(=O)c3ccc(-c4ccc(C#N)cc4)cc3)CC2)CC1`
32

###

- System: Plasmodium falciparum
- assay name: GSK_TCMDC: Inhibition of Plasmodium falciparum Dd2 in whole red blood cells, using parasite LDH activity as an index of growth. Test compounds present at 2uM
- Format: functional
What Inhibition was measured for each of the following?
Write it as a number; the unit % goes unstated.

Look up Inhibition for this compound: `CC(C)(CNCc1ccc(F)c(F)c1)c1nc(-c2ccnc(N)n2)c(-c2ccc(Cl)c(O)c2)[nH]1.Cl`
79

Look up Inhibition for this compound: `Cc1cc(N[C@@H](CC(C)C)C(=O)Nc2ccccc2)nc(NCCc2ccccc2)n1.O=C(O)C(F)(F)F`
87

Look up Inhibition for this compound: `CCOC(=O)c1ccc(NC(=O)N[C@H]2CCN(CCCCCNC(=O)/C=C/c3ccc(Cl)c(Cl)c3)C2)cc1`
1

Look up Inhibition for this compound: `O=C(O)/C=C/c1cccc(F)c1F`
1

Look up Inhibition for this compound: `CCCCN(CCCC)CCCN(CCCN(CCCC)CCCC)c1cc(C)nc(Nc2ccc(Br)cc2)n1.O=C(O)C(=O)O`
98

Look up Inhibition for this compound: `COc1ccccc1CNc1ccnc(N2CC(Oc3ccc(F)cc3)C2)n1`
95

Look up Inhibition for this compound: `CC(C)Nc1nc(NCCc2c[nH]cn2)nc(NCc2ccc(Cl)c(Cl)c2)n1`
0

Look up Inhibition for this compound: `Cc1ccc(Cn2nc(Cl)c(N3CCNCC3)cc2=O)cc1NC(=O)Nc1ccc(-c2ccccc2)cc1.O=C(O)C(F)(F)F`
97

Look up Inhibition for this compound: CC(C)[C@@H](C(=O)NCc1cccc(C(F)(F)F)c1)N1C(=O)CCC1C(=O)Nc1ccc([N+](=O)[O-])cc1 (stereo not given in full)
2

Look up Inhibition for this compound: `CCOC(=O)c1c[nH]c2c(ccc3ccccc32)c1=O`
96

Look up Inhibition for this compound: `Cc1cccc2nc(-c3ccc(-c4ccc(CN5CCN(CCN6CCOCC6)CC5)cc4)s3)[nH]c12.O=C(O)C(F)(F)F`
99

Look up Inhibition for this compound: `CN1CCN(CCCN(Cc2ccc(-c3cccc(CNC4CCCC4)c3)cc2)C(=O)Nc2ccccc2)CC1.O=C(O)C(F)(F)F`
76

Look up Inhibition for this compound: `FC(F)(F)c1ccc2[nH]ccc(=NN=Cc3cccnc3)c2c1`
40

Look up Inhibition for this compound: `CCN(CC)CCN(Cc1ccc(-c2ccc(C(F)(F)F)cc2)cc1)C(=O)Cn1c(SCc2ccc(F)cc2)nc(=O)c2ccccc21.O=C(O)C(O)C(O)C(=O)O`
48

Look up Inhibition for this compound: Cc1cc(OCc2ccccc2)c(OCc2ccccc2)cc1C(O)CN(C)Cc1ccccc1.Cl (stereo not given)
87

Look up Inhibition for this compound: `CCOc1cc(C)ccc1C1CCN(CCCCNC(=O)c2ccc(-c3ccc(Cl)cn3)cc2)CC1.Cl`
8

Look up Inhibition for this compound: `Cc1cc(-c2cnc(N)c(-c3ccc(N4CCN(C)CC4)nc3)c2)cc(C)c1O`
33

Look up Inhibition for this compound: `CC(=O)N(C)c1cccc(C(=O)Nc2ccc(-c3cccc(-c4nc5cccc(C)c5[nH]4)c3)cc2)c1`
68

Look up Inhibition for this compound: `COc1ccc(NC(=O)[C@H](CC(C)C)Nc2cc(C)nc(NCCOc3ccccc3)n2)cc1.O=C(O)C(F)(F)F`
65

Look up Inhibition for this compound: `CC(=O)c1ccc(-c2ccccc2)s1`
2

Look up Inhibition for this compound: `COCCNCc1nc(-c2ccc3c(Nc4ccc(Cl)cc4F)ccnc3c2)cs1`
100

Look up Inhibition for this compound: `O=C(NCCCCCCNCc1ccc(-c2ccccc2)cc1)Nc1ccc(Cl)c(Cl)c1`
2

Look up Inhibition for this compound: `COc1cc(CCOc2c(C)nc(N)nc2N)cc(OC)c1OC.Cl`
0

Look up Inhibition for this compound: `O=C(Nc1ccc(-c2cccc(-c3nc4cc(F)ccc4[nH]3)c2)cc1)Nc1ccc(Cl)c(Cl)c1`
24

Look up Inhibition for this compound: `CCNc1cc(C(=O)N[C@@H](Cc2ccccc2)[C@H](O)CNC2(CCC(C)C)CC2)cc(N2CCCCS2(=O)=O)c1.Cl`
52

Look up Inhibition for this compound: `CCc1ccc(NC(=O)c2ccc(CN3CCCN(Cc4cccc(Cl)c4)CC3)cc2)cc1.O=C(O)C(F)(F)F`
2

Look up Inhibition for this compound: O=C(O)C(F)(F)F.O=c1ccc2ccc(F)c3c2n1CC3CN1CCC(NCc2cccc(-c3ccccc3F)c2)CC1 (stereo not given)
6

Look up Inhibition for this compound: `CCCc1ccc(NC(=O)c2ccc(CN3CCCN(Cc4ccc(OC)cc4)CC3)cc2)cc1.O=C(O)C(F)(F)F`
0

Look up Inhibition for this compound: COc1ccc2ncc(Cl)c(NCC3(O)CCC(NCc4ccc5c(n4)NC(=O)CS5)CC3)c2n1.Cl (stereo not given)
31

Look up Inhibition for this compound: `Cc1cc(Cl)c(S(=O)(=O)N(C)c2ccccc2)cc1OCC(=O)NC1CCCCC1`
94

Look up Inhibition for this compound: `CCOc1cc(C(=O)NC2CCN(Cc3ccccc3)CC2)ccc1-c1nc2cc(Cl)c(F)cc2[nH]1`
51

Look up Inhibition for this compound: `NC(=O)c1ccc(C(=O)Nc2cccc(-c3csc(-c4nc5ccccc5[nH]4)c3)c2)cc1`
35

Look up Inhibition for this compound: `CCc1cc(Cc2cnc(N)nc2N)cc(CC)c1OC`
12

Look up Inhibition for this compound: CC1CCNc2ccc(Cc3cnc(N)nc3N)cc21.Cl (stereo not given)
0

Look up Inhibition for this compound: `Cl.Nc1c2c(nc3ccc(NC(=O)CCCc4ccccc4)cc13)CCCC2`
42
